Test system: Respiratory syncytial virus (RSV) strain A2
Experiment: RSV antiviral assay (HEp-2, 96 well)
Format: cell-based
Details: human respiratory syncytial virus, HEp-2, 96 h, read-out: EC50 RSV HEP2 96, HEp-2 cells, RSV A2, MOI=4, 4 days, 96 well; Table 3
pEC50: −log10 of the molar value.
observation type: pEC50

{"compound": "CCC(=O)O[C@H]1[C@@H](OC(=O)CC)[C@](C#N)(c2ccc3c(N)ncnn23)O[C@@H]1CO[P@@](=O)(N[C@@H](C)C(=O)OCC(C)(C)OC)Oc1ccccc1 [Example 169]", "observation type": "pEC50", "endpoint result": 7.20}
{"compound": "CCC(C)(C)CCOC(=O)[C@H](C)NP(=O)(OC[C@H]1O[C@@](C#N)(c2ccc3c(N)ncnn23)[C@H](O)[C@@H]1O)Oc1ccccc1 (some centres unmarked) [Intermediate S4]", "observation type": "pEC50", "endpoint result": 7.83}
{"compound": "CC(=O)O[C@H]1[C@@H](OC(C)=O)[C@](C#N)(c2ccc3c(N)ncnn23)O[C@@H]1COP(=O)(N[C@@H](C)C(=O)OC1CCC1)Oc1ccc(C2CC2)cc1 (single isomer, unassigned) [Example 53a]", "observation type": "pEC50", "endpoint result": 7.42}
{"compound": "CCC(C)(C)COC(=O)[C@H](C)NP(=O)(OC[C@H]1O[C@@](C#N)(c2ccc3c(N)ncnn23)[C@H](OC(=O)C(C)C)[C@@H]1OC(=O)C(C)C)Oc1ccccc1 (some centres unmarked) [Example 114]", "observation type": "pEC50", "endpoint result": 7.21}
{"compound": "C[C@H](NP(=O)(OC[C@H]1O[C@@](C#N)(c2ccc3c(N)ncnn23)[C@H](O)[C@@H]1O)Oc1ccc(C(C)(C)C)cc1)C(=O)OC1CCCCCCC1 (some centres unmarked) [Example 73]", "observation type": "pEC50", "endpoint result": 6.26}
{"compound": "CCC(C)(C)CCOC(=O)[C@H](C)NP(=O)(OC[C@H]1O[C@@](C#N)(c2ccc3c(N)ncnn23)[C@H](OC(=O)C(C)C)[C@@H]1OC(=O)C(C)C)Oc1ccccc1 (some centres unmarked) [Example 74]", "observation type": "pEC50", "endpoint result": 6.88}
{"compound": "C[C@H](NP(=O)(OC[C@H]1O[C@@](C#N)(c2ccc3c(N)ncnn23)[C@H](O)[C@@H]1O)Oc1ccc(C2CC2)cc1)C(=O)OC1CCC1 (some centres unmarked) [Example 51a]", "observation type": "pEC50", "endpoint result": 7.18}
{"compound": "CCC(CC)COC(=O)[C@H](C)NP(=O)(OC[C@H]1O[C@@](C#N)(c2ccc3c(N)ncnn23)[C@H](O)[C@@H]1O)Oc1ccc(C[C@H](NC(=O)OCc2ccccc2)C(=O)OCCC(C)C)cc1 (some centres unmarked) [Example 71]", "observation type": "pEC50", "endpoint result": 5.75}
{"compound": "CC(=O)O[C@H]1[C@@H](OC(C)=O)[C@](C#N)(c2ccc3c(N)ncnn23)O[C@@H]1COP(=O)(N[C@@H](C)C(=O)OC1CC2(CCC2)C1)Oc1ccc(C(C)(C)C)cc1 (some centres unmarked) [Example 80]", "observation type": "pEC50", "endpoint result": 7.77}
{"compound": "CCOC(=O)[C@H](C)NP(=O)(OC[C@H]1O[C@@](C#N)(c2ccc3c(N)ncnn23)[C@H](O)[C@@H]1O)Oc1cccc2ccccc12 (some centres unmarked) [Intermediate S1]", "observation type": "pEC50", "endpoint result": 7.03}
{"compound": "CCC(=O)O[C@H]1[C@@H](OC(=O)CC)[C@](C#N)(c2ccc3c(N)ncnn23)O[C@@H]1COP(=O)(N[C@@H](C)C(=O)OC)Oc1ccc(C(C)(C)C)cc1 (some centres unmarked) [Example 113]", "observation type": "pEC50", "endpoint result": 7.66}

----------
System: Respiratory syncytial virus (RSV) strain A2
Experiment: Hep-2 RSV2 384-well assay (EC50-HEP2-384)
Type: cell-based
Conditions: HEp-2 cells, RSV A2, MOI=4, 4 days, Table 1
molecules and their reported EC50

{"molecule": "CC(C)C(=O)O[C@H]1[C@@H](OC(=O)C(C)C)[C@](C#N)(c2ccc3c(N)ncnn23)O[C@@H]1COP(=O)(N[C@@H](C)C(=O)OC1CCC1)Oc1ccccc1 (single isomer, unassigned) [Example 21a]", "EC50, nM": 92}
{"molecule": "CC(C)C(=O)O[C@H]1[C@@H](OC(=O)C(C)C)[C@](C#N)(c2ccc3c(N)ncnn23)O[C@@H]1COP(=O)(N[C@@H](C)C(=O)OC1CCC1)Oc1ccccc1 (stereo partly drawn) [Example 21]", "EC50, nM": 58.8}
{"molecule": "CCOC(=O)[C@H](C)NP(=O)(OC[C@H]1O[C@@](C#N)(c2ccc3c(N)ncnn23)[C@H](OC(=O)C(C)C)[C@@H]1OC(=O)C(C)C)Oc1ccc(C(C)(C)C)cc1 (single isomer, unassigned) [Example 18b]", "EC50, nM": 75}
{"molecule": "CCC(CC)COC(=O)[C@H](C)NP(=O)(OC[C@H]1O[C@@](C#N)(c2ccc3c(N)ncnn23)[C@H](O)[C@@H]1O)Oc1ccc(C(C)(C)C)cc1 (single isomer, unassigned) [Example 13b]", "EC50, nM": 33.4}
{"molecule": "CCC(CC)COC(=O)[C@H](C)NP(=O)(OC[C@H]1O[C@@](C#N)(c2ccc3c(N)ncnn23)[C@H](O)[C@@H]1O)Oc1ccc(C(C)(C)C)cc1 (single isomer, unassigned) [Example 13a]", "EC50, nM": 91.2}
{"molecule": "CC(C)C(=O)O[C@H]1[C@@H](OC(=O)C(C)C)[C@](C#N)(c2ccc3c(N)ncnn23)O[C@@H]1COP(=O)(N[C@@H](C)C(=O)OC1CCC1)Oc1ccccc1 (single isomer, unassigned) [Example 21b]", "EC50, nM": 34.7}

----------
molecules and their reported EC50
System: Respiratory syncytial virus (RSV) strain A2
Experiment: RSV antiviral assay (HEp-2, 96 well)
Assay type: cell-based
Settings: read-out: EC50 RSV HEP2 96; HEp-2 cells, RSV A2, MOI=4, 4 days, 96 well; Table 3

{"molecule": "CCC(=O)O[C@H]1[C@@H](OC(=O)CC)[C@](C#N)(c2ccc3c(N)ncnn23)O[C@@H]1COP(=O)(N[C@@H](C)C(=O)OC1CC2(CCC2)C1)Oc1cccc2ccccc12 (single isomer, unassigned) [Example 87a]", "study target": "Respiratory syncytial virus (RSV) strain A2", "EC50, nM": 31.1}
{"molecule": "CC(C)C(=O)O[C@H]1[C@@H](OC(=O)C(C)C)[C@](C#N)(c2ccc3c(N)ncnn23)O[C@@H]1COP(=O)(N[C@@H](C)C(=O)OCCC(C)(C)C)Oc1ccccc1 (single isomer, unassigned) [Example 56a]", "study target": "Respiratory syncytial virus (RSV) strain A2", "EC50, nM": 35.5}

----------
molecules and their reported pEC50
System: Respiratory syncytial virus (RSV) strain A2
Experiment: Hep-2 RSV2 384-well assay (EC50-HEP2-384)
Type: cell-based
Settings: human respiratory syncytial virus, HEp-2, 96 h, HEp-2 cells, RSV A2, MOI=4, 4 days, Table 1
pEC50: −log10 of the molar value.
observation type: pEC50

{"molecule": "C[C@H](NP(=O)(OC[C@H]1O[C@@](C#N)(c2ccc3c(N)ncnn23)[C@H](O)[C@@H]1O)Oc1ccc(C(C)(C)C)cc1)C(=O)OC1CC2(CCC2)C1 (some centres unmarked)", "study target": "Respiratory syncytial virus (RSV) strain A2", "endpoint result": 7.21}
{"molecule": "CCOC(=O)[C@H](C)NP(=O)(OC[C@H]1O[C@@](C#N)(c2ccc3c(N)ncnn23)[C@H](OC(=O)C(C)C)[C@@H]1OC(=O)C(C)C)Oc1ccc(C(C)(C)C)cc1 (some centres unmarked) [Example 18]", "study target": "Respiratory syncytial virus (RSV) strain A2", "endpoint result": 7.08}
{"molecule": "CCOC(=O)[C@H](C)NP(=O)(OC[C@H]1O[C@@](C#N)(c2ccc3c(N)ncnn23)[C@H](OC(=O)C(C)C)[C@@H]1OC(=O)C(C)C)Oc1ccc(C(C)(C)C)cc1 (single isomer, unassigned) [Example 18a]", "study target": "Respiratory syncytial virus (RSV) strain A2", "endpoint result": 7.18}
{"molecule": "CC(=O)O[C@H]1[C@@H](OC(C)=O)[C@](C#N)(c2ccc3c(N)ncnn23)O[C@@H]1COP(=O)(N[C@@H](C)C(=O)OC1CC2(CCC2)C1)Oc1ccc(C(C)(C)C)cc1 (some centres unmarked)", "study target": "Respiratory syncytial virus (RSV) strain A2", "endpoint result": 7.40}
{"molecule": "CCC(CC)COC(=O)[C@H](C)NP(=O)(OC[C@H]1O[C@@](C#N)(c2ccc3c(N)ncnn23)[C@H](O)[C@@H]1O)Oc1ccc(C(C)(C)C)cc1 (mixture of isomers)", "study target": "Respiratory syncytial virus (RSV) strain A2", "endpoint result": 7.23}
